system: MST1; construct: gene STK4; conditions: concentration: 1 μM, replicates: in singlicate; n = 1;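 also: KINOMEscan kinase panel screen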
quantity: %Inh (%)

compound: O=C1NC(=O)C(N2CCc3ccccc32)=C1c1ccccc1Cl
quantity: %Inh
reported value: 87
--
compound: COc1cc2ncnc(Nc3ccc4nc(-c5ccccc5)[nH]c4c3)c2cc1OC.Cl
quantity: %Inh
reported value: 0
--
compound: Cc1ccc(NC(=O)Nc2cc(C(C)(C)C)nn2-c2ccccc2)cc1
quantity: %Inh
reported value: 52
--
compound: Fc1cc(Cl)ccc1Nc1ccnc2cc(I)ccc12
quantity: %Inh
reported value: 0
--
compound: Cc1cc(NCC(c2ccccc2)c2ccccc2)nc(NCc2ccc(C(F)(F)F)cc2)n1
quantity: %Inh
reported value: 0
--
compound: CC(C)(C)c1ccc(C(=O)Nc2cn3cc(-c4cccnc4)ccc3n2)cc1
quantity: %Inh
reported value: 33
--
compound: CN(C)CCN(C)C(=O)c1cc(-c2ccncc2)c(-c2ccc(Cl)c(O)c2)o1.Cl.Cl
quantity: %Inh
reported value: 0
--
compound: COc1ccc(CNC(=O)NC2CCN(c3ccnc(Nc4cc(OC)c(OC)c(OC)c4)n3)C2)cc1 (stereo not drawn)
quantity: %Inh
reported value: 0
--
compound: Cn1ccc2ncnc(Oc3ccc(NC(=O)Nc4ccccc4)cc3)c21
quantity: %Inh
reported value: 0
